Biological target: glucagon receptor (GCGR) overexpressed CHO-K1 cells or human primary hepatocytes (Homo sapiens)
Construct: expressed in transfected cells; host or cells: GCGR overexpressed CHO-K1 cells or human primary hepatocytes (endogenous receptor)
Sequence (P47871 26-477): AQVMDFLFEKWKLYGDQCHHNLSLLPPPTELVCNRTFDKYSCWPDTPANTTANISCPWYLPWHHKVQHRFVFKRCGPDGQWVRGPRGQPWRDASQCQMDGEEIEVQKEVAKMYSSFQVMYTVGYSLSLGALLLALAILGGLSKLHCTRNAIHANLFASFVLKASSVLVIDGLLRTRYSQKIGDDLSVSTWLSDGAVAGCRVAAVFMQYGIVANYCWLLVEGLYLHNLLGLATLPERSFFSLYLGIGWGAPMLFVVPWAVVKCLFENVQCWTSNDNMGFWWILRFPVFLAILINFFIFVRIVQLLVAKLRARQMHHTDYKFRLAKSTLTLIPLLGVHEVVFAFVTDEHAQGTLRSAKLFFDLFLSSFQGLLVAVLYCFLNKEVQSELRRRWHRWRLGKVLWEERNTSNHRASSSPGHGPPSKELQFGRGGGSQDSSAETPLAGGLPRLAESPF
Test: Glucagon cAMP inhibition assay (Cisbio cAMP Dynamic 2 HTRF)
Assay type: cell-based
Details: inhibition of glucagon (EC50 concentration) induced cAMP production
READOUT_TYPE: IC50 cAMP

SMILES_DATA | READOUT_TYPE | OBS_VALUE
CC(C)[C@@H](COc1ccc(-c2cc3ccccc3o2)c(F)c1)Nc1ccc(C(=O)NCCC(=O)O)cc1 | IC50 cAMP | 0.0844 µM
CCCC[C@@H](COc1ccc(-c2cc3ccccc3o2)nc1)Nc1ccc(C(=O)NCCC(=O)O)cc1 | IC50 cAMP | 0.7916 µM
CC(C)(C)[C@@H](COc1ccc(-c2cc3ccccc3o2)cc1)Nc1ccc(C(=O)NCCC(=O)O)cc1 | IC50 cAMP | 0.2353 µM
CC(C)(C)[C@@H](COc1ccc(-c2ccc(Cl)cc2Cl)cc1)Nc1ccc(C(=O)NCCC(=O)O)cc1 | IC50 cAMP | 0.243 µM

----------
Molecular target: glucagon receptor (GCGR) (Homo sapiens, UniProt P47871)
Construct: expressed in transfected cells; host or cells: CHO-K1 cells overexpressing GCGR (membrane fractions)
Sequence (P47871 26-477): as above
Test: I125-glucagon binding assay (competition, GCGR membrane fractions)

SMILES_DATA | IC50 / nM
CC(C)COC[C@@H](Cc1ccc(-c2ccc(C(C)(C)C)cc2)cc1)Nc1ccc(C(=O)NCCC(=O)O)cc1 | 1040
CC[C@H](C)[C@@H](COc1ccc(-c2cc3ccccc3o2)c(C)n1)Nc1ccc(C(=O)NCCC(=O)O)cc1 | 203
O=C(O)CCNC(=O)c1ccc(N[C@H](Cc2ccc(-c3ccc(Cl)cc3Cl)cc2)C(=O)Nc2ccc(C(F)(F)F)cc2)cc1 | 239
CC(C)C[C@@H](COc1ccc(-c2ccc(C(F)(F)F)nn2)cn1)Nc1ccc(C(=O)NCCC(=O)O)cc1 | 2990
CCCC[C@@H](COc1ccc(-c2cc3ccccc3o2)c(C)n1)Nc1ccc(C(=O)NCCC(=O)O)cc1 | 386
CCCC[C@@H](COc1ccc(-c2cc3ccccc3o2)cn1)Nc1ccc(C(=O)NCCC(=O)O)cc1 | 89
CC(C)[C@@H](COc1ccc(-c2ccc(C(F)(F)F)cc2)cn1)Nc1ccc(C(=O)NCc2nnn[nH]2)cc1 | 390

----------
Examples of compounds with documented pIC50 follow.
Target: glucagon receptor (GCGR) (Homo sapiens, UniProt P47871)
Construct: expressed in transfected cells; host or cells: CHO-K1 cells overexpressing GCGR (membrane fractions)
Assay: I125-glucagon binding assay (competition, GCGR membrane fractions)
Settings: competition with I125-glucagon 0.0625 nM, membrane fractions of GCGR overexpressed CHO-K1 cells
pIC50: −log10 of the molar value.

COMPOUND | pIC50
CC(C)C[C@@H](COc1cc(F)c(-c2ccc(C(F)(F)F)cc2Cl)c(F)c1)Nc1ccc(C(=O)NCCC(=O)O)cc1 | 7.12
CCCC[C@@H](COc1cnc(-c2ccc(Cl)cc2Cl)nc1)Nc1ccc(C(=O)NCCC(=O)O)cc1 | 6.05
CC(C)[C@@H](COc1cc(F)c(-c2cc3ccccc3o2)c(F)c1)Nc1ccc(C(=O)NCCC(=O)O)cc1 | 7.03
COC(=O)CCNC(=O)c1ccc(N[C@H](COc2ccc(-c3nc4ccccc4s3)cc2)C(C)C)cc1 | 5.24
CC(C)[C@@H](COc1ccc(-c2ccc(C(F)(F)F)nn2)cc1)Nc1ccc(C(=O)NCCC(=O)O)cc1 | 5.55
O=C(O)CCNC(=O)c1ccc(NC(COc2ccc(-c3ccc(C(F)(F)F)cc3)cc2)c2ccccc2)cc1 (stereo not drawn) | 6.82
CC[C@H](C)[C@@H](COc1ccc(-c2ccc(OC(F)(F)F)cc2)cc1)Nc1ccc(C(=O)NCCC(=O)O)cc1 | 6.64
CCCC[C@@H](COc1ccc(-c2ccc(C(F)(F)F)cc2Cl)cc1)Nc1ccc(C(=O)NCc2nnn[nH]2)cc1 | 7.02
CC(C)C[C@@H](COc1cc(F)c(-c2ccc(Cl)cc2Cl)c(F)c1)Nc1ccc(C(=O)NCCC(=O)O)cc1 | 7.31
CC[C@H](C)[C@@H](COc1ccc(-c2ccc(Cl)cc2Cl)c(OC)c1)Nc1ccc(C(=O)NCCC(=O)O)cc1 | 7.04
CC(C)[C@@H](COc1ccc(-c2cc3ccccc3o2)cc1)Nc1cnc(C(=O)NCCC(=O)O)cn1 | 6.90
CC(C)[C@@H](COc1ccc(-c2ccc(C(F)(F)F)cc2)cc1)Nc1ccc(C(=O)NCCC(=O)O)cn1 | 6.43
CC[C@H](C)[C@@H](COc1ccc(-c2nnc(-c3ccccc3)o2)cc1)Nc1ccc(C(=O)NCCC(=O)O)cc1 | 6.22
CC(C)C[C@@H](COc1cnc(-c2ccc(Cl)cc2Cl)nc1)Nc1ccc(C(=O)NCCC(=O)O)cc1 | 6.63
CC(C)[C@@H](COc1ccc(-c2cc3ccccc3o2)c(Cl)c1)Nc1ccc(C(=O)NC[C@@H](O)C(=O)O)cc1 | 6.74
CC[C@H](C)[C@@H](COc1ccc(-c2ccc(C(F)(F)F)cc2F)c(F)c1)Nc1ccc(C(=O)NCCC(=O)O)cc1 | 6.73
CC[C@H](C)[C@@H](COc1cc(C)c(-c2ccc(C(C)(C)C)cc2)c(C)c1)Nc1ccc(C(=O)NCCC(=O)O)cc1 | 7.17
CCCC[C@@H](COc1ccc(-c2ccc(C(F)(F)F)cc2F)c(F)c1)Nc1ccc(C(=O)NCCC(=O)O)cc1 | 6.51
CC(C)(C)[C@@H](COc1ccc(-c2cc3ccccc3o2)c(F)c1)Nc1ccc(C(=O)NCCC(=O)O)cc1 | 6.95
CC[C@H](C)[C@@H](COc1cc(Cl)c(-c2cc3ccccc3o2)cc1Cl)Nc1ccc(C(=O)NCCC(=O)O)cc1 | 7.19
CC[C@H](C)[C@@H](COc1ccc(-c2ccc(F)cc2F)nn1)Nc1ccc(C(=O)NCCC(=O)O)cc1 | 6.35
CC[C@H](C)[C@@H](COc1ccc(-c2cc3ccccc3o2)nc1)Nc1ccc(C(=O)NCCC(=O)O)cc1 | 6.65
CC(C)[C@@H](COc1ccc(-c2ccc(Cl)cc2Cl)c(F)c1)Nc1ccc(C(=O)NCCC(=O)O)cc1 | 6.84
CC(C)[C@@H](COc1ccc(-c2ccc(C(F)(F)F)cc2Cl)c(Cl)c1)Nc1ccc(C(=O)NCc2nnn[nH]2)cc1 | 7.07
CC(C)[C@@H](COc1ccc(-c2ccc(C(F)(F)F)cc2F)nn1)Nc1ccc(C(=O)NCCC(=O)O)cc1 | 5.59
CC(C)[C@@H](COc1ccc(-c2ccc(C(F)(F)F)cc2F)c(F)c1)Nc1ccc(C(=O)NCCS(=O)(=O)O)cc1 | 5.77
CC(C)C[C@@H](COc1ccc(-c2ccc(C(F)(F)F)cc2)nc1)Nc1ccc(C(=O)NCCC(=O)O)cc1 | 6.27
